tested on: A. baumannii 005; conditions: A. baumannii 005; CAMHB, 37°C, 16–20 h
Measured attribute: MIC of antibiotics

Please supply the value of reported MIC of antibiotics for the item CNC(C)C1CCC(N)C(OC2C(N)CC(N)C(OC3OCC(C)(O)C(NC)C3O)C2O)O1 (stereo not shown) [Gen, gentamicin, reference compound] >128 µg/mL

Give MIC of antibiotics for the following compound: CO/N=C(\C(=O)N[C@@H]1C(=O)N2C(C(=O)O)=C(COC(C)=O)CS[C@H]12)c1csc(N)n1 [Cefot, cefotaxime, reference compound] 512 µg/mL

Identify MIC of antibiotics associated with the compound C[C@@H](O)[C@H]1C(=O)N2C(C(=O)O)=C(S[C@@H]3CN[C@H](C(=O)N(C)C)C3)[C@H](C)[C@H]12 [Mer, meropenem, reference compound] >64 µg/mL

Retrieve MIC of antibiotics measured for CC(C)(O/N=C(\C(=O)N[C@@H]1C(=O)N2C(C(=O)[O-])=C(C[n+]3ccccc3)CS[C@H]12)c1csc(N)n1)C(=O)O [Cefaz, ceftazidime, reference compound] and print it. 512 µg/mL

* * *

system: horse red blood cells (RBCs); assay: Haemolysis assay; type: cell-based; conditions: red cells of horse, 4 h
Square brackets hold non-standard residues; d marks the D form. Peptide text beside a SMILES is read from it. Nspe(4-Br) = C[C@H](NCC(=O)O)c1ccc(Br)cc1; N(tridecyl)Gly = CCCCCCCCCCCCCNCC(=O)O; Nspe = C[C@H](NCC(=O)O)c1ccccc1; NDecylGly = CCCCCCCCCCNCC(=O)O; Nlys = NCCCCNCC(=O)O
Measured attribute: HD50 (50% haemolytic dose) (µg/mL)
Numbers only; they are read as µg/mL.

Tell me its HD50 (50% haemolytic dose) on horse red blood cells (RBCs): C[C@@H](c1ccc(Br)cc1)N(CC(=O)N(CCCCN)CC(=O)N(CC(=O)N(CC(=O)N(CCCCN)CC(N)=O)[C@@H](C)c1ccc(Br)cc1)[C@@H](C)c1ccc(Br)cc1)C(=O)CN(C(=O)CNCCCCN)[C@@H](C)c1ccc(Br)cc1 [TM14] (H-[Nlys][Nspe(4-Br)][Nspe(4-Br)][Nlys][Nspe(4-Br)][Nspe(4-Br)][Nlys]-NH2) 24

Output reported HD50 (50% haemolytic dose) of the compound C[C@@H](c1ccccc1)N(CC(N)=O)C(=O)CN(C(=O)CN(CCCCN)C(=O)CN(C(=O)CN(C(=O)CN(CCCCN)C(=O)CN(C(=O)CN(C(=O)CN(CCCCN)C(=O)CN(C(=O)CN(C(=O)CNCCCCN)[C@@H](C)c1ccccc1)[C@@H](C)c1ccccc1)[C@@H](C)c1ccccc1)[C@@H](C)c1ccccc1)[C@@H](C)c1ccccc1)[C@@H](C)c1ccccc1)[C@@H](C)c1ccccc1 [TM1] (H-[Nlys][Nspe][Nspe][Nlys][Nspe][Nspe][Nlys][Nspe][Nspe][Nlys][Nspe][Nspe]-NH2) on horse red blood cells (RBCs). 44.8

# lookup: horse red blood cells (RBCs) HD50 (50% haemolytic dose), key = CCCCCCCCCCCCCNCC(=O)N(CCCCN)CC(=O)N(CC(=O)N(CC(=O)N(CCCCN)CC(=O)N(CCCCN)CC(N)=O)[C@@H](C)c1ccccc1)[C@@H](C)c1ccccc1 [TM15] (H-[N(tridecyl)Gly][Nlys][Nspe][Nspe][Nlys][Nlys]-NH2) 86.4

State recorded HD50 (50% haemolytic dose) with horse red blood cells (RBCs), entry CCCCCCCCCCNCC(=O)N(CCCCN)CC(=O)N(CC(=O)N(CC(=O)N(CCCCN)CC(=O)N(CC(=O)N(CC(N)=O)[C@@H](C)c1ccccc1)[C@@H](C)c1ccccc1)[C@@H](C)c1ccccc1)[C@@H](C)c1ccccc1 [TM8] (H-[NDecylGly][Nlys][Nspe][Nspe][Nlys][Nspe][Nspe]-NH2) , no comment. 27.2

State HD50 (50% haemolytic dose) (horse red blood cells (RBCs)) of C[C@@H](c1ccc(Br)cc1)N(CC(N)=O)C(=O)CN(C(=O)CN(CCCCN)C(=O)CN(C(=O)CN(C(=O)CNCCCCN)[C@@H](C)c1ccccc1)[C@@H](C)c1ccc(Br)cc1)[C@@H](C)c1ccccc1 [TM2] (H-[Nlys][Nspe][Nspe(4-Br)][Nlys][Nspe][Nspe(4-Br)]-NH2) . 64
